Reported values of inhibition at 1 µM for individual entries
Tested on: dopaminergic receptors D3 (Homo sapiens, UniProt P35462)
Sequence (P35462 whole entry): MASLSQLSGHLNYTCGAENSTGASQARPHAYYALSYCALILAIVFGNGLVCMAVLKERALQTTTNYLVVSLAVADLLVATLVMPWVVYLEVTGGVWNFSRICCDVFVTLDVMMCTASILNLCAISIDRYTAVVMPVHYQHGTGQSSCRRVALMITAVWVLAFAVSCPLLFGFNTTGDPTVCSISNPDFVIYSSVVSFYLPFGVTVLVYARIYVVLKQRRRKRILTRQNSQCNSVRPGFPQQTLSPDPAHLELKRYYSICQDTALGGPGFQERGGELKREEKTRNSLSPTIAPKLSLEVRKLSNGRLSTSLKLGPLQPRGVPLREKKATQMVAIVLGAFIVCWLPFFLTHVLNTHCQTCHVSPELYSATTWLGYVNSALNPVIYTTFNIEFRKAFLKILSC
Test name: Radioligand binding assay, dopaminergic D3 receptors
Condition context: test compound 1×10^−6 M

Molecule	inhibition at 1 µM (%)
Cc1c(S(=O)(=O)NCC2CN(CCOc3cccc4c3OCCO4)C2)sc2ccc(Cl)cc12	78
Cn1ccc2cc(S(=O)(=O)NCC3CN(CCOc4cccc5ccccc45)C3)ccc21	100
Cc1c(S(=O)(=O)NCC2CCN(CCCc3noc4cc(F)ccc34)C2)sc2ccc(Cl)cc12 (centres unmarked)	95
O=S(=O)(NCC1CCN(CCOc2cccc3c2OCCO3)C1)c1ccc(Cl)c(Cl)c1 (centres unmarked)	34
O=S(=O)(NCC1CCN(CCCc2noc3cc(F)ccc23)C1)c1ccc(F)cc1 (centres unmarked)	43
O=S(=O)(NC1CN(CCOc2cccc3[nH]ccc23)C1)c1ccc(F)cc1	104
O=S(=O)(NCC1CN(CCOc2cccc3ccccc23)C1)c1ccc(F)c(F)c1	99
CC1(C)Cc2cccc(OCCN3CCC(CNS(=O)(=O)c4ccc5ccccc5c4)C3)c2O1 (centres unmarked)	62
O=S(=O)(NCC1CCN(CCOc2cccc3c2OCCO3)C1)c1ccc2scnc2c1 (centres unmarked)	18
O=S(=O)(N[C@H]1CCN(CCCc2noc3cc(F)ccc23)C1)c1cc2ccccc2s1	83
O=S(=O)(NC1CCN(CCCc2c[nH]c3ccc(F)cc23)C1)c1ccc2ccccc2c1 (centres unmarked)	100
Cc1cccc(S(=O)(=O)NCC2CN(CCCc3noc4cc(F)ccc34)C2)c1	45
Cc1c(S(=O)(=O)N[C@@H]2CCN(CCCc3noc4cc(F)ccc34)C2)sc2ccc(Cl)cc12	96
Cc1c(S(=O)(=O)NCC2CCN(CCOc3cccc4ccccc34)C2)sc2ccc(F)cc12 (centres unmarked)	93
O=S(=O)(NCC1CN(CCCc2noc3cc(F)ccc23)C1)c1ccc(-c2ccccc2)cc1	94
O=S(=O)(NCC1CCN(CCOc2cccc3ccccc23)C1)c1cc2ccccc2s1 (centres unmarked)	93
Cc1cc(S(=O)(=O)N[C@H]2CCN(CCCc3noc4cc(F)ccc34)C2)c(C)s1	57

###

Tested on: H1 histaminergic receptors (Homo sapiens, UniProt P35367)
Construct: expressed in transfected cells; host or cells: HEK-293 cells
Sequence (P35367 whole entry): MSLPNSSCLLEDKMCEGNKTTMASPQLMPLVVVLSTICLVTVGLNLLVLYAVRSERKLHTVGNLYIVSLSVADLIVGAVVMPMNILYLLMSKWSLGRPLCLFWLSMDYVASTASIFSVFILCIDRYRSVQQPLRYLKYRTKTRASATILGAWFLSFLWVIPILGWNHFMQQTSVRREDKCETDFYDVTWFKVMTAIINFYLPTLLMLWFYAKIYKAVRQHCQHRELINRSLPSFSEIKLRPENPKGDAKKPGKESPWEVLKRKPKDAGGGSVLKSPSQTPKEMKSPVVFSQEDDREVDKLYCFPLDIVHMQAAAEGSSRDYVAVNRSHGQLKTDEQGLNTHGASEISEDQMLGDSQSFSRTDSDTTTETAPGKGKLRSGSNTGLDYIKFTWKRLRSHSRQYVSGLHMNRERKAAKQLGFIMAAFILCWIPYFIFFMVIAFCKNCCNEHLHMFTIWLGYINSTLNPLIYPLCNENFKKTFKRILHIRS
Test name: Radioligand binding assay, histaminergic H1 receptors
Condition context: human recombinant (HEK-293 cells), [3H]pyrilamine 1 nM
Lab note: anything with inhibition at 1 µM at or over 70% counts as true (1); the rest go in false (0).

Compound	Classification
CC1(C)Cc2cccc(OCCN3CCC(NS(=O)(=O)c4ccc5ccccc5c4)C3)c2O1 (centres unmarked)	false (0)
O=S(=O)(NC1CN(CCOc2cccc3[nH]ccc23)C1)c1ccc2ccccc2c1	false (0)
O=S(=O)(NC1CN(CCOc2cccc3[nH]ccc23)C1)c1cccc(Cl)c1	false (0)
O=S(=O)(N[C@H]1CCN(CCCc2noc3cc(F)ccc23)C1)c1cc2ccccc2s1	true (1)
O=S(=O)(NCC1CN(CCCc2noc3cc(F)ccc23)C1)c1ccc(-c2ccccc2)cc1	true (1)
O=S(=O)(NCC1CN(CCOc2cccc3c2OCCO3)C1)c1cc2ccccc2o1	false (0)
Cc1cc(S(=O)(=O)NC2CCN(CCCc3noc4cc(F)ccc34)C2)c(C)s1 (centres unmarked)	false (0)
O=S(=O)(N[C@@H]1CCN(CCCc2noc3cc(F)ccc23)C1)c1cc2ccc(Cl)cc2s1	true (1)
